Collected Kd values appear next to each entry.
TEST SYSTEM: T1, human Ly6G6D polypeptide (UniProt O95868 20-104)
T1 chain: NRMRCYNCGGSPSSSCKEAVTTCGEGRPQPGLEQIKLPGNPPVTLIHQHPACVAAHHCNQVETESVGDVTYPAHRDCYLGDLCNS
ASSAY INFO: BIAcore
Field: numeric (nM). Do not append units.

hu6E10.K4-1.V3-48 (antibody, V domains shown) VH: EQQLVESGGGLVQPGGSLRLSCAVSGLSLSTNSINWVRQAPGKGLEWIGYIYHGDGIADYASWAKGRFTISKDSAKNSVYLQMNSLRAEDTAVYFCASGAGYSLFTLWGPGTLVTVSS VL: DAVLTQSPDSLAVSLGERATINCQSSESVWHNNWLAWFQQKPGQRPKLLIYGASTLASGVPDRFSGSGSGTDFTLTISSLQAEDVAVYYCAGGYSSSDAHVFGGGTKVEIK ... 1.41

# next binder below
Problem: Check the records and state Kd for hu6E10.K1-5.V4-4 (antibody, V domains shown) VH: EQQLQESGPGLVKPPGTLSLTCAVSGLSLSTNSINWVRQPPGKGLEWIGYIYHGDGIADYASWAKGRFTISKDSSKTQVSLKLSSVTAADTAVYFCASGAGYSLFTLWGPGTLVTVSS VL: DAQLTQSPSTLSASVGDRVTITCQSSESVWHNNWLAWFQQKPGKRPKLLIYGASTLASGVPSRFSGSGSGTEFTLTISSLQPDDFATYYCAGGYSSSDAHVFGGGTKVEIK
Solution: 3.34
